target: long isoform of human D2 receptor (Homo sapiens, UniProt P14416); test: Arrestin Agonist Assay (DRD2L PathHunter CHO-K1 cells, β-arrestin recruitment)
Sequence (P14416 whole entry, canonical isoform): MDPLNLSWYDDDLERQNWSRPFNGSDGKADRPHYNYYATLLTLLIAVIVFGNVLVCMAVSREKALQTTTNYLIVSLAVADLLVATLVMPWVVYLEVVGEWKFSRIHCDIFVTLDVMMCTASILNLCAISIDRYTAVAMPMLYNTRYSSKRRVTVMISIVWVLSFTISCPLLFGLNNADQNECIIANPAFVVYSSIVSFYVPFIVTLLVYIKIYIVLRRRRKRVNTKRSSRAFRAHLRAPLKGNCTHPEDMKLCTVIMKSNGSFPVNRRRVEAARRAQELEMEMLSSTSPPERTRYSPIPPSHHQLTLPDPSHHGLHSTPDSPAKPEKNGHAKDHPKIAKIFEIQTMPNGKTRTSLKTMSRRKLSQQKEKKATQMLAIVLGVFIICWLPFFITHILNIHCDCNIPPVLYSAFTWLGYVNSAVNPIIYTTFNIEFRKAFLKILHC
pEC50: −log10 of the molar value.
Quantity: pEC50

- Chemical string: "c1cc(OCCCCN2CCc3ccccc3C2)nc(-c2c[nH]cn2)c1"
  Quantity: "pEC50"
  Value observed: "< 5.00"
- Chemical string: "O=c1ccc2ccc(OCCCCN3CCc4c(cccc4C(F)(F)F)C3)nc2[nH]1"
  Quantity: "pEC50"
  Value observed: "7.00 to 8.00"
- Chemical string: "O=C1CCc2ccc(OCCCCN3CCc4cc(C(F)(F)F)ccc4C3)nc2N1"
  Quantity: "pEC50"
  Value observed: "< 5.00"
- Chemical string: "O=C1CCc2ccc(OCCCCN3CCc4ncncc4C3)cc2N1"
  Quantity: "pEC50"
  Value observed: "6.00 to 7.00"
- Chemical string: "Oc1cccc2ccc(OCCCCN3CCc4sccc4C3)nc12"
  Quantity: "pEC50"
  Value observed: "< 5.00"
- Chemical string: "O=C1CCc2ccc(OCCCCN3CCc4nccnc4C3)cc2N1"
  Quantity: "pEC50"
  Value observed: "6.00 to 7.00"

# credit: patent US9951088B2
